Can you tell me Kd for the items I'm about to list?
system: gag-pol stem loop; assay: Gel shift analysis of RNA oligonucleotide sets binding to HIV gag-pol stem loop (triple strand); conditions: 100 mM NaCl, 25 mM TRIS acetate pH5, 2 mM MgCl2, 1 mM spermidine
One number for each entry, in µM.

Known results for substances:
{"SUBSTANCE": "A2: RNA oligonucleotide (CCCUUCCCAUC; RNA, backbone not given here) [Set A2]", "SYSTEM": "gag-pol stem loop", "Kd (µM)": 10}
{"SUBSTANCE": "C2: RNA oligonucleotide (CCCUUCCCCUC; RNA, backbone not given here) [Set C2]", "SYSTEM": "gag-pol stem loop", "Kd (µM)": 1}
{"SUBSTANCE": "B2: RNA oligonucleotide (CCCUUCCCGUC; RNA, backbone not given here) [Set B2]", "SYSTEM": "gag-pol stem loop", "Kd (µM)": 10}

// switching to the query substance
Kd on gag-pol stem loop for D2: RNA oligonucleotide (CCCUUCCCUUC; RNA, backbone not given here) [Set D2] is 10
